test system: PBMC; details: 12.5 µM
Please go through the items and note down their Average (percentage cell inhibition), Mastoparan PBMC.
Reply numerically in %, unit not repeated.

Exercise: Bench note: what Average (percentage cell inhibition), Mastoparan PBMC did "CC[C@H](C)[C@H](N)C(=O)N[C@@H](CC(N)=O)C(=O)N[C@@H](CC(C)C)C(=O)N[C@@H](CCCCN)C(=O)N[C@@H](C)C(=O)N[C@@H](CC(C)C)C(=O)N[C@@H](C)C(=O)N[C@@H](C)C(=O)N[C@@H](CC(C)C)C(=O)N[C@@H](Cc1c[nH]cn1)C(=O)N[C@@H](CCCCN)C(=O)N[C@@H](CCCCN)C(=O)N[C@H](C(=O)N[C@@H](CC(C)C)C(N)=O)[C@@H](C)CC" show?
Solution: -10.8779

Exercise: What Average (percentage cell inhibition), Mastoparan PBMC value was documented for this compound, "CC[C@H](C)[C@H](N)C(=O)N[C@@H](CC(N)=O)C(=O)N[C@@H](CC(C)C)C(=O)N[C@@H](CCCCN)C(=O)N[C@@H](C)C(=O)N[C@@H](CC(C)C)C(=O)N[C@@H](C)C(=O)N[C@@H](C)C(=O)N[C@@H](CC(C)C)C(=O)N[C@@H](C)C(=O)N[C@@H](CCCCN)C(=O)N1CCC[C@H]1C(=O)N[C@H](C(=O)N[C@@H](CC(C)C)C(N)=O)[C@@H](C)CC" ?
Solution: -2.814

Exercise: Can you share its Average (percentage cell inhibition), Mastoparan PBMC? I mean this compound: "CC[C@H](C)[C@H](N)C(=O)N[C@@H](CC(N)=O)C(=O)N[C@@H](CC(C)C)C(=O)N[C@@H](CCCCN)C(=O)N[C@@H](C)C(=O)N[C@@H](CC(C)C)C(=O)N[C@@H](C)C(=O)N[C@@H](C)C(=O)N[C@@H](Cc1ccc(O)cc1)C(=O)N[C@@H](C)C(=O)N[C@@H](CCCCN)C(=O)N[C@@H](CCCCN)C(=O)N[C@H](C(=O)N[C@@H](CC(C)C)C(N)=O)[C@@H](C)CC"
Solution: 11.8226

Exercise: Fill in the blank: the reported Average (percentage cell inhibition), Mastoparan PBMC of "CC[C@H](C)[C@H](N)C(=O)N[C@@H](CC(N)=O)C(=O)N[C@@H](CC(C)C)C(=O)N[C@@H](CCCCN)C(=O)N[C@@H](C)C(=O)N[C@@H](CC(N)=O)C(=O)N[C@@H](C)C(=O)N[C@@H](C)C(=O)N[C@@H](CC(C)C)C(=O)N[C@@H](C)C(=O)N[C@@H](CCCCN)C(=O)N[C@@H](CCCCN)C(=O)N[C@H](C(=O)N[C@@H](CC(C)C)C(N)=O)[C@@H](C)CC" is ____.
Solution: 6.768

Exercise: Value lookup for Average (percentage cell inhibition), Mastoparan PBMC; key = "CC[C@H](C)[C@H](N)C(=O)N[C@@H](CC(N)=O)C(=O)N[C@@H](CC(C)C)C(=O)N[C@@H](CCCCN)C(=O)N[C@@H](C)C(=O)N[C@@H](CC(C)C)C(=O)N[C@@H](C)C(=O)N[C@@H](C)C(=O)N[C@@H](CC(C)C)C(=O)N[C@H](C(=O)N[C@@H](CCCCN)C(=O)N[C@@H](CCCCN)C(=O)N[C@H](C(=O)N[C@@H](CC(C)C)C(N)=O)[C@@H](C)CC)C(C)C"
Solution: 37.352

Exercise: // returns reported Average (percentage cell inhibition), Mastoparan PBMC for input "CC[C@H](C)[C@H](N)C(=O)N[C@@H](CC(N)=O)C(=O)N[C@@H](CC(C)C)C(=O)N[C@@H](CCCNC(=N)N)C(=O)N[C@@H](C)C(=O)N[C@@H](CC(C)C)C(=O)N[C@@H](C)C(=O)N[C@@H](C)C(=O)N[C@@H](CC(C)C)C(=O)N[C@@H](C)C(=O)N[C@@H](CCCCN)C(=O)N[C@@H](CCCCN)C(=O)N[C@H](C(=O)N[C@@H](CC(C)C)C(N)=O)[C@@H](C)CC"
Solution: 0.667

Exercise: Would you kindly share the measured Average (percentage cell inhibition), Mastoparan PBMC for "CC[C@H](C)[C@H](N)C(=O)N[C@@H](CCC(N)=O)C(=O)N[C@@H](CC(C)C)C(=O)N[C@@H](CCCCN)C(=O)N[C@@H](C)C(=O)N[C@@H](CC(C)C)C(=O)N[C@@H](C)C(=O)N[C@@H](C)C(=O)N[C@@H](CC(C)C)C(=O)N[C@@H](C)C(=O)N[C@@H](CCCCN)C(=O)N[C@@H](CCCCN)C(=O)N[C@H](C(=O)N[C@@H](CC(C)C)C(N)=O)[C@@H](C)CC" ?
Solution: 13.2802

Exercise: Sample "CC[C@H](C)[C@H](N)C(=O)N[C@@H](CC(N)=O)C(=O)N[C@@H](CC(C)C)C(=O)N[C@@H](CCCCN)C(=O)N[C@@H](C)C(=O)N[C@@H](CC(C)C)C(=O)N[C@@H](CCC(N)=O)C(=O)N[C@@H](C)C(=O)N[C@@H](CC(C)C)C(=O)N[C@@H](C)C(=O)N[C@@H](CCCCN)C(=O)N[C@@H](CCCCN)C(=O)N[C@H](C(=O)N[C@@H](CC(C)C)C(N)=O)[C@@H](C)CC" — what was its Average (percentage cell inhibition), Mastoparan PBMC?
Solution: 9.246

Exercise: Item under review: "CC[C@H](C)[C@H](N)C(=O)N[C@@H](CC(N)=O)C(=O)N[C@@H](CC(C)C)C(=O)N[C@@H](CCCCN)C(=O)N[C@@H](C)C(=O)N[C@@H](CC(C)C)C(=O)N[C@@H](C)C(=O)N[C@@H](Cc1ccc(O)cc1)C(=O)N[C@@H](CC(C)C)C(=O)N[C@@H](C)C(=O)N[C@@H](CCCCN)C(=O)N[C@@H](CCCCN)C(=O)N[C@H](C(=O)N[C@@H](CC(C)C)C(N)=O)[C@@H](C)CC" . Reported Average (percentage cell inhibition), Mastoparan PBMC?
Solution: 22.0038

Exercise: Give its Average (percentage cell inhibition), Mastoparan PBMC value. Item: "CC[C@H](C)[C@H](N)C(=O)N[C@@H](CC(N)=O)C(=O)N[C@@H](CC(C)C)C(=O)N[C@@H](CCC(=O)O)C(=O)N[C@@H](C)C(=O)N[C@@H](CC(C)C)C(=O)N[C@@H](C)C(=O)N[C@@H](C)C(=O)N[C@@H](CC(C)C)C(=O)N[C@@H](C)C(=O)N[C@@H](CCCCN)C(=O)N[C@@H](CCCCN)C(=O)N[C@H](C(=O)N[C@@H](CC(C)C)C(N)=O)[C@@H](C)CC"
Solution: 5.1636
